molecules and their reported melting point

The cases that follow already have their melting point on record.
molecule=O=C(O)C(Oc1ccccc1)(C(F)(F)F)C(F)(F)F assay_metric="melting point" reported="6 to 8 °C"
molecule=CCOc1ccc(OC)cc1 assay_metric="melting point" reported="30 to 31 °C"

So for CN1C(=O)C(C(=O)Nc2ccc(Cl)cc2)S(=O)(=O)c2ccccc21 (stereo not drawn) , the logged melting point turned out to be 220 to 222 °C

---

ASSAY METRIC: melting point

The cases that follow already have their melting point on record.
compound=COC(=O)CCC(=O)OCC(C)(C)Oc1ccc2c(c1)CCc1c-2ccc2c1CCC2(C)C assay_metric="melting point" reported="58 to 60 °C"
compound=COc1ccccc1-c1nc(-c2ccccc2)nc(-c2ccccc2O)n1 assay_metric="melting point" reported="153 to 155 °C"
compound="CNC(=O)CC(O)(c1ccc(Br)cc1)c1cccnc1 (centres undefined)" assay_metric="melting point" reported="188 to 191 °C"
compound="CC(O)C(=O)NC1CCC(CC2CCC(NC(=O)C(C)O)CC2)CC1 (centres undefined)" assay_metric="melting point" reported="195 to 199 °C"
compound=CCCCc1nc2c(N)nc3ccccc3c2n1CCCCSC assay_metric="melting point" reported="127 to 130 °C"

So for CCCCCCCCc1ccc(C(O)CC(CO)(CO)NC(C)=O)cc1 (centres undefined) , the logged melting point turned out to be 118 to 119 °C

---

ASSAY METRIC: melting point

So for `CCOP(=O)(OCC)c1ccc(Oc2ccccc2[N+](=O)[O-])cc1` , the logged melting point turned out to be 150 °C

So for `CC1(C)NC(=O)c2ccccc2N1CCCN1CCC(C(=O)c2ccc(F)cc2)CC1` , the logged melting point turned out to be 186 °C

So for `O=c1cc(-c2ccc(OCc3ccccc3)c(OCc3ccccc3)c2)oc2cc(OCCCCl)ccc12` , the logged melting point turned out to be 153 °C

So for O=C1OC(CO)CN1c1ccc(N2CC3CSCC3C2)c(F)c1 (stereo not given) , the logged melting point turned out to be 165 to 167 °C

---

ASSAY METRIC: melting point

compound=CC1(C)CCC(C)(C)c2cc(C#CCO)ccc21 reported="84 to 85 °C"
compound=CC(=O)c1ccc(CCNS(=O)(=O)c2ccc(Br)cc2)cc1 reported="130 to 131 °C"
compound=O=C(CCCCCCCCCC=C(F)F)Nc1ccccc1Cl reported="54 to 55 °C"
compound=CNc1nc(SC)nc(N(C)C)c1[N+](=O)[O-] reported="128 to 132 °C"
compound="COC(c1ccccc1)C1CCCCCC(Cc2ccccc2)C1=O (centres undefined)" reported="83 to 84 °C"
compound=COc1cc(C(=O)N(C(C)C)C2CCCCC2)ccc1Cn1c(-c2ccccc2Cl)nc2cccnc21 reported="121 to 123 °C"

So for `COC(=O)C=C1SC(Nc2c(Cl)cccc2Cl)=NC1=O` , the logged melting point turned out to be 189 to 190 °C

So for `Cc1ncc2cc(Cl)nc(Cl)n12` , the logged melting point turned out to be 134 to 135 °C

So for `CSC(Nc1cc(C(F)(F)F)cc(C(F)(F)F)c1)=C(C#N)S(C)(=O)=O` , the logged melting point turned out to be 129 to 131 °C
